- tested.target: T1, acyl-ACP thioesterase ChFatB2 from Cuphea hookeriana, excluding the transit peptide (residues 129-395) (Cuphea hookeriana, UniProt Q39514 129-395)
- T1 construct: acyl-ACP thioesterase ChFatB2, Cuphea hookeriana, residues 129-395, excluding the transit peptide; pCold II vector; source: E. coli BL21 (DE3), purified (Ni-NTA, Superdex 200)
- T1 sequence (looked up): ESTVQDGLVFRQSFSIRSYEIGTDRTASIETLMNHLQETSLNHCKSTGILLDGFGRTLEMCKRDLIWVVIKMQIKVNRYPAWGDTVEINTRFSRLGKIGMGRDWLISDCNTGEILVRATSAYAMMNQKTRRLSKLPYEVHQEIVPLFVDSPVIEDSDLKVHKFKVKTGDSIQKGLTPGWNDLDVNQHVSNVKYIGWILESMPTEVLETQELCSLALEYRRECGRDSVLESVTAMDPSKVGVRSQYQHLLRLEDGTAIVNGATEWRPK
- method.notes: liquid crystal assay; ChFatB2 (5 μg/mL, 1.5 µL) dried on DMOAP-coated glass slides; ACP solutions (10 μg/mL, 1.5 µL) deposited on the immobilized ChFatB2, 30 min, washed with deionized water; grayscale of polarised-light images of the liquid crystal cell (Image J); semi-quantitative; holo-ACP defined as 100% binding
- study.conditions: both partners purified
Values of grayscale of the liquid crystal image greater than or equal to 100 grayscale map to 1.0; values below map to 0.0.

Solved entries:
binder="C8-acyl acyl carrier protein 2 from Cuphea lanceolata (residues 54-137) (natural protein, UniProt P52412 54-137, looked up, C8 (8:0) acyl chain on the phosphopantetheine of holo-ACP (residue not given), acyl carrier protein ClACP2, Cuphea lanceolata, UniProt P52412, residues 54-137, excluding the chloroplast transit peptide; also called C8-ClACP2) QAKPETVTKVCNIVKKQLALPDDSDVSGVSKFSALGADSLDTVEIVMGLEEEFGISVEEESAQSIQTVQDAADLIEKLMEKKGH" label_value=1.0
binder="C10-acyl acyl carrier protein from Escherichia coli (natural protein, C10 (10:0) acyl chain on the phosphopantetheine of holo-ACP (residue not given), also called C10-EcACP) STIEERVKKIIGEQLGVKQEEVTNNASFVEDLGADSLDTVELVMALEEEFDTEIPDEEAEKITTVQAAIDYINGHQA" label_value=1.0
binder="holo acyl carrier protein from Escherichia coli (natural protein, holo form (phosphopantetheine; residue not given), also called holo-EcACP; EC-holo-ACP; source: E. coli BAP1 (chromosomal B. subtilis Sfp), purified (Ni-NTA, Superdex 200)) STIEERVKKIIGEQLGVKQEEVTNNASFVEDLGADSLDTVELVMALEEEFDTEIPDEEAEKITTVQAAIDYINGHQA" label_value=1.0
binder="holo acyl carrier protein 2 from Cuphea lanceolata, excluding the chloroplast transit peptide (residues 54-137) (natural protein, UniProt P52412 54-137, looked up, holo form (phosphopantetheine; residue not given), acyl carrier protein ClACP2, Cuphea lanceolata, UniProt P52412, residues 54-137, excluding the chloroplast transit peptide; also called holo-ClACP2; ClACP2; source: E. coli BAP1 (chromosomal B. subtilis Sfp), purified (Ni-NTA, Superdex 200)) QAKPETVTKVCNIVKKQLALPDDSDVSGVSKFSALGADSLDTVEIVMGLEEEFGISVEEESAQSIQTVQDAADLIEKLMEKKGH" label_value=1.0

[ask] Could you verify whether the entry C10-acyl acyl carrier protein 2 from Cuphea lanceolata (residues 54-137) (natural protein, UniProt P52412 54-137, looked up, C10 (10:0) acyl chain on the phosphopantetheine of holo-ACP (residue not given), acyl carrier protein ClACP2, Cuphea lanceolata, UniProt P52412, residues 54-137, excluding the chloroplast transit peptide; also called C10-ClACP2) QAKPETVTKVCNIVKKQLALPDDSDVSGVSKFSALGADSLDTVEIVMGLEEEFGISVEEESAQSIQTVQDAADLIEKLMEKKGH shows grayscale of the liquid crystal image of no less than 100 grayscale?
[reply] 0.0

[ask] Same question for C8-acyl acyl carrier protein from Escherichia coli (natural protein, C8 (8:0) acyl chain on the phosphopantetheine of holo-ACP (residue not given), also called C8-EcACP; C8-ACP) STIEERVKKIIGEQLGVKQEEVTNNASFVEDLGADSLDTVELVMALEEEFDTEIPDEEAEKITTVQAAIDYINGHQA please.
[reply] 1.0

Hello, the source for this data is paper PMC10095102, in case you need it.
